Data credit: ChEMBL document CHEMBL1857833

- Test system: Trypanosoma brucei
- ASSAY_PROCEDURE: DNDI: Inhibition of Human African Trypanosomiasis, SBRI 427, in vitro at 2 ug.mL-1
- Format: functional
The whole screen tested about 4,400 compounds, of which about 390 (8.9%) showed an effect of 50% or more. This excerpt belongs to a sample that is enriched for strong results.
METRIC: % inhibition (%)
Answer in %, number only, no unit symbol.

Query :: Provide one value: measured % inhibition of Cc1ccccc1-c1nc(CNC[C@@H]2CCCO2)co1
Result :: -1

Query :: Provide one value: measured % inhibition of Cc1ccccc1-c1nc(CNC2CCCCCC2)co1
Result :: 61

Query :: Provide one value: measured % inhibition of CCOc1ccc(Oc2cc(/C(=N/O)N3CCC4CCCCC4C3)ccn2)cc1 (configuration not stated)
Result :: 16

Query :: Provide one value: measured % inhibition of Cc1cccc(Oc2nc(C)ccc2/C(N)=N/O)c1
Result :: -4

Query :: Provide one value: measured % inhibition of Brc1ccccc1-c1nc(CNC2CCN(Cc3ccccc3)C2)co1 (configuration not stated)
Result :: -6

Query :: Provide one value: measured % inhibition of Cc1cc(C)cc(Oc2ccc(/C(N)=N/O)cn2)c1
Result :: 11

Query :: Provide one value: measured % inhibition of Cc1ccc(/C(=N/O)NC(C)C)c(Oc2cccc(C(C)C)c2)n1
Result :: 7

Query :: Provide one value: measured % inhibition of Brc1ccccc1-c1nc(CNC2CCCCCCCCCCC2)co1
Result :: 59

Query :: Provide one value: measured % inhibition of CSc1ccc(Oc2nc(C)ccc2/C(=N/O)N2CCSCC2)cc1C
Result :: 12

Query :: Provide one value: measured % inhibition of Cc1cc(Oc2nc(C)ccc2/C(N)=N/O)cc(C(C)C)c1
Result :: 55

Query :: Provide one value: measured % inhibition of O/N=C(\NCC1CC1)c1cccnc1Oc1ccc(F)cc1
Result :: 97

Query :: Provide one value: measured % inhibition of Cc1ccccc1-c1nc(CNC2CCN(Cc3ccccc3)C2)co1 (configuration not stated)
Result :: 30

====

Field: % inhibition. Provide a value for each of the molecules that follow.
- Test system: Trypanosoma brucei
- ASSAY_PROCEDURE: DNDI: Inhibition of Human African Trypanosomiasis, SBRI 427, in vitro at 2 ug.mL-1
- Type: functional
In all, about 4,400 compounds went through this assay and about 390 (8.9%) showed an effect of 50% or more. The sample as a whole holds a higher share of strong results than the screen did.
Answer in %, number only, no unit symbol.

Query :: Provide one value: measured % inhibition of COc1ccc(Oc2nc(C)ccc2/C(=N/O)N2CCCC2C)cc1 (stereo unspecified)
Result :: -10

Query :: Provide one value: measured % inhibition of CCN(Cc1ccccc1)Cc1coc(-c2ccc(OC)cc2)n1
Result :: -11

Query :: Provide one value: measured % inhibition of CCCCN(CCC#N)Cc1coc(-c2ccc(C(C)(C)C)cc2)n1
Result :: 3

Query :: Provide one value: measured % inhibition of CC(C)c1ccc(N/C(=N\O)c2cccnc2OCC(F)(F)F)cc1
Result :: 1

Query :: Provide one value: measured % inhibition of O/N=C(\NCC1CCCO1)c1cccnc1OCC1CCCCC1 (stereo unspecified)
Result :: 5

Query :: Provide one value: measured % inhibition of Cc1ccc(/C(N)=N/O)c(Oc2cccc3ccc(C)nc23)n1
Result :: 13

Query :: Provide one value: measured % inhibition of COc1cc(C)ccc1Oc1ncccc1/C(=N/O)N(C)C1CCN(C)CC1
Result :: -9

Query :: Provide one value: measured % inhibition of Cc1ccc(/C(=N/O)NC2CCCCC2)c(Oc2ccc(Cl)cc2)n1
Result :: 22

Query :: Provide one value: measured % inhibition of Cc1ccc(/C(=N/O)NC2CCCC2)c(OCC2CCCCC2)n1
Result :: 12

Query :: Provide one value: measured % inhibition of Cc1ccc(/C(=N/O)NCC2CCCO2)c(Oc2cc(Cl)ccc2Cl)n1 (stereo unspecified)
Result :: 85

Query :: Provide one value: measured % inhibition of O/N=C(\NCC1CCCCC1)c1cccnc1OCC(F)(F)F
Result :: 0
